This section presents compounds with their documented pIC50 values.
Biological target: PDGFRβ (Rattus norvegicus (Rat))
Sequence (Q05030 whole entry, looked up): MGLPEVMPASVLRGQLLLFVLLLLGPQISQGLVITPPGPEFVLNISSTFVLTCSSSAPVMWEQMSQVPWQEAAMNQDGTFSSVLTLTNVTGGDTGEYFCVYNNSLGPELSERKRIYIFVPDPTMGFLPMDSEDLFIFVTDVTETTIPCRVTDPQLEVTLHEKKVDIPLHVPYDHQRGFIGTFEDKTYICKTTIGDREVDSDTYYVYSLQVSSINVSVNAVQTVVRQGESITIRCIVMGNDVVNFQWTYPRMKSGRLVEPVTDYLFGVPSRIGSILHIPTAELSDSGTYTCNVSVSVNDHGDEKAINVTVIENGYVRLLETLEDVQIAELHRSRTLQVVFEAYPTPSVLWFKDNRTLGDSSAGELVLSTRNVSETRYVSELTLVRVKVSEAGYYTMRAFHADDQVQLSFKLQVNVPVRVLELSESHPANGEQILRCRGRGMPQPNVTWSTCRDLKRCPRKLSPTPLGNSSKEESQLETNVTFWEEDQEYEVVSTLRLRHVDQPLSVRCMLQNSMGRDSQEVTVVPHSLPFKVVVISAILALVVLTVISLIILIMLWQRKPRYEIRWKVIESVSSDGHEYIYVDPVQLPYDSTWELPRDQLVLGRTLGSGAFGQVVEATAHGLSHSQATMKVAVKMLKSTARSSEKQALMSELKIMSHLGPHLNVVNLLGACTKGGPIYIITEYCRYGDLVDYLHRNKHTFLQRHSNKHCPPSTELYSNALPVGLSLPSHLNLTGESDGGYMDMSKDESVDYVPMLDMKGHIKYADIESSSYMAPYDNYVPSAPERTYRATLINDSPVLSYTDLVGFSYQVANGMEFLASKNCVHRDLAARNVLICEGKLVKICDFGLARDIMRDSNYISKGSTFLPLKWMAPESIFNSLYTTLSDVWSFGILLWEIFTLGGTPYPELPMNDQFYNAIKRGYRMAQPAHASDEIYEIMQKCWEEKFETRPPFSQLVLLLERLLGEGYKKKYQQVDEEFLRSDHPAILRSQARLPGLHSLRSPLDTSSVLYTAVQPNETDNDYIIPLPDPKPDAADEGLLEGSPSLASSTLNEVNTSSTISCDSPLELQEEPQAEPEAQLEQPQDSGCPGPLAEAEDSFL
Assay: PDGFRβ Cellular Assay (PDGFRb P-Y751 HTRF, PDGF-BB stimulated A10 cells)
Assay type: cell-based
Conditions: A10 cells, 3 hours compound, 15 ng/mL PDGFbb for 10 minutes; read-out: PDGFR Cellular IC50
Keep it numeric: pIC50 is minus log10 of the concentration in mol/L.

Solved cases (3 shown):
Compound	Reported
Cc1ncc(C(=O)NCCN2CCCC2(C)C)cc1Nc1nn(C)c2nc(Nc3ccnc(N)c3)ncc12 [Example 41]	6.94
Cc1ncc(C(=O)NCCN2CCC3(CC3)C2)cc1Nc1nn(C)c2nc(Nc3cnn(C)c3)ncc12 [Example 90]	7.57
COC1CCN(CCNC(=O)c2cc(C)c(Nc3nn(C)c4nc(Nc5cnn(C)c5)ncc34)s2)CC1 [Example 49]	6.98

Q: Given Cc1ncc(NC(=O)CN2CCC[C@@H]2C)cc1Nc1nn(C)c2nc(Nc3cn(C)cn3)ncc12 [Example 142] , state its recorded pIC50.
A: 7.87

Q: pIC50 for Cc1ncc(NC(=O)CN2CCC[C@@H]2C)cc1Nc1nn(C)c2nc(Nc3cnn(C)c3)ncc12 [Example 71] ?
A: 8.77

Q: Please give the measured pIC50 for this compound: Cc1ncc(C(=O)NCCN2CC(C)CC(C)C2)cc1Nc1nn(C)c2nc(Nc3cnn(C)c3)ncc12 (stereo not shown) [Example 87]
A: 7.94
